Where do these numbers come from? They come from ChEMBL document CHEMBL3091430.

# measurement.notes: Photostability of the compound assessed as compound remaining measured within 7 days by HPLC analysis
# Type: physicochemical
# condition.description: read-out: Stability
measure: remaining at 168 h

* CCn1c(=O)c2c(nc(/C=C/c3ccc(OC)c(OC)c3)n2C)n(CC)c1=O | > 50%

====

# measurement.notes: Octanol-water partition coefficient, log P of the compound by HPLC analysis
# Type: physicochemical
measure: logP

* CCn1c(=O)c2c(nc(/C=C/c3ccc(OC)c(OC)c3)n2C)n(CC)c1=O | 2.98
* CCn1c(=O)c2c(nc(/C=C/c3ccc(C(=O)OCCOCCOCCOCCOCCOCCOCCOCCOC)c(OC)c3)n2C)n(CC)c1=O | 2.8

====

# measurement.notes: Half life in mouse at 20 mg/kg, ip by HPLC analysis
# Assay type: ADME, organism-based
# Set-up: dose 20 mg/kg, route intraperitoneal
# condition.description: in vivo
measure: half-life

- Nc1nc(NCCc2ccc(O)cc2)nc2nc(-c3ccco3)nn12 [ZM-241385]: < 1 h

====

# measurement.notes: Half life in rat
# Type: ADME, organism-based
# condition.description: in vivo
measure: half-life (h)

• CCn1c(=O)c2c(nc(/C=C/c3ccc(OC)c(OC)c3)n2C)n(CC)c1=O [ISTRADEFYLLINE] = 2
